Quick list: binding normalized to PSGL-1 per entry.
biological target: T1, SulfoCCK biotin peptide (human); test: ELISA, 50 nM mAb
T1 construct: also called sulfotyrosine CCK peptide
T1 peptide: SHRISDRD[sY]MGWMDFGGK(Biotin)
Non-standard residues stand in square brackets, D forms with d. No end group written: not given here. *: point of attachment. Biotin = O=C1N[C@H]2[C@H](CS[C@H]2CCCCC(=O)*)N1; sY = N[C@@H](Cc1ccc(OS(=O)(=O)O)cc1)C(=O)O

{"Binder": "10F01 (antibody, IgG4, V domains shown) VH: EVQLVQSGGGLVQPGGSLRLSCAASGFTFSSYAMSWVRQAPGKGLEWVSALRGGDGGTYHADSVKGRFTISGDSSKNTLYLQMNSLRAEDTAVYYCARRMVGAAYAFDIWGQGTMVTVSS VL: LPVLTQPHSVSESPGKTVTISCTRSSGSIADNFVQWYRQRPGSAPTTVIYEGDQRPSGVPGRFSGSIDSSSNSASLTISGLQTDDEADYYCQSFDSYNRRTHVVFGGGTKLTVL", "binding normalized to PSGL-1": 0.03}
{"Binder": "03E05 (antibody, IgG4, V domains shown) VH: EVKLLESGGDLAQTGGSLRLSCVASGFTFSSYPMSWVRQAPGKGLEWVSAIRRSGATQYADSVKGRFTISRDNSKNTVYLQMNSLRVEDTAVYYCAKGTYDLGQGTLVTVSS VL: DIVMTQTPLSLPVTLGQPASISCRSSQSLVYSDGNTYLNWFHQRPGQSPRRLIYKVSNRDSGVPDRFSGSGSDTEFTLKISRVEAEDVGVYYCMQATHWPLTFGGGTKVEIK", "binding normalized to PSGL-1": 0.23}
{"Binder": "09B09 (antibody, IgG4, V domains shown) VH: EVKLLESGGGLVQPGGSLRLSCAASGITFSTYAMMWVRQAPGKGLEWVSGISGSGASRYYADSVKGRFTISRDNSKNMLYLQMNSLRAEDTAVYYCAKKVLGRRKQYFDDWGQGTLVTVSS VL: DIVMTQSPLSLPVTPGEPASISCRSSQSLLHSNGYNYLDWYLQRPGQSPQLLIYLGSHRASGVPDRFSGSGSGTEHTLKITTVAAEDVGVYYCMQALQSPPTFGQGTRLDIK", "binding normalized to PSGL-1": 0.25}
{"Binder": "03D07 (antibody, IgG4, V domains shown) VH: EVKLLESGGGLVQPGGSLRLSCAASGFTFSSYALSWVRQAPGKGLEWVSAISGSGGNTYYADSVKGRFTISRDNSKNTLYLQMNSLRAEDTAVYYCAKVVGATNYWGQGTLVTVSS VL: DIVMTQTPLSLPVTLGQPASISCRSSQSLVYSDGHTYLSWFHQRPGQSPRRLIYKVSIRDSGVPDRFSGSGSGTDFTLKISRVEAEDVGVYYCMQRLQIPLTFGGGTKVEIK", "binding normalized to PSGL-1": 0.08}
{"Binder": "02E06 (antibody, IgG4, V domains shown) VH: QVQLVQSGAEVKKPGASVKVSCKASGYSFTDYYMHWVRQAPGQGLEWMGWMNPNSGNTGYAQTFQGRVTMTRNTSISTAYMELSSLRSEDTAVYYCARGRRVRGTPTFEYWGQGTLVTVSS VL: QSVVTQPPSASGTPGQRVTISCSGRSSNIGSYTVNWFQHLPGTGPKLLIYGNNQRPSGVPGRFSGSKSGTSASLAISGLQSNDEATYYCAAWDDSLNGHYVFGTGTKVTVL", "binding normalized to PSGL-1": 1.21}
{"Binder": "09C10 (antibody, V domains shown) VH: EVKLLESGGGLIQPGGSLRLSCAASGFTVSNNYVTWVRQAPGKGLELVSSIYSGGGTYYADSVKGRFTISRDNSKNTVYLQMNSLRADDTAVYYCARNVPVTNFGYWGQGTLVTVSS VL: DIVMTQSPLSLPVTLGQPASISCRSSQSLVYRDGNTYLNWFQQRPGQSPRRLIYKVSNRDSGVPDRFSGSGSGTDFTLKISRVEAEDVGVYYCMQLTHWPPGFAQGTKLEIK", "binding normalized to PSGL-1": 0.75}
{"Binder": "09D04 (antibody, IgG4, V domains shown) VH: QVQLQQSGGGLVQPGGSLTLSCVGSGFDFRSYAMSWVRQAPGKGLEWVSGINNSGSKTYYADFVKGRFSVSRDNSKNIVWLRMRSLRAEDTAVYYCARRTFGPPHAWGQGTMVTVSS VL: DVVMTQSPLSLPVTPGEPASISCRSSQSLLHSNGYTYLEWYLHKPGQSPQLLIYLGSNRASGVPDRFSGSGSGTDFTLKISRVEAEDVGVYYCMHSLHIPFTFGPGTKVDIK", "binding normalized to PSGL-1": 0.53}
{"Binder": "09A02 (antibody, IgG4, V domains shown) VH: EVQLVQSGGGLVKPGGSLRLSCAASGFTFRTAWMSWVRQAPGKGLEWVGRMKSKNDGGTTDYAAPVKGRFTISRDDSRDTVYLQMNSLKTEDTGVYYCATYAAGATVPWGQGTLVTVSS VL: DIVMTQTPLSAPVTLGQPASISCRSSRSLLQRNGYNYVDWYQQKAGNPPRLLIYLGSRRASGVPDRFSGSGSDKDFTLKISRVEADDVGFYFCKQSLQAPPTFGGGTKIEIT", "binding normalized to PSGL-1": 1.1}
{"Binder": "05A07 (antibody, IgG4, V domains shown) VH: QVQLVQSGSEVKRPGASVKVSCKTSGYTFSNYGIAWVRQAPGQGLEWVGWVSAYNGKTGASQKLQGRVTMTTDRSTTTAYLELRSLQSDDTAVYYCARGVKGGLTGYARDYWGQGTLVIVSS VL: DIVLTQSPRSLPVTLGQPASISCRSSQSLVNRAGDTYLNWFQQRPGQSPRRLIYKVSNRDSGVPDRFSGSGSGTDFTLKISRVEAEDVGVYYCMQGTQWPYTFGQGTKLEIK", "binding normalized to PSGL-1": 1.17}
{"Binder": "09D11 (antibody, IgG4, V domains shown) VH: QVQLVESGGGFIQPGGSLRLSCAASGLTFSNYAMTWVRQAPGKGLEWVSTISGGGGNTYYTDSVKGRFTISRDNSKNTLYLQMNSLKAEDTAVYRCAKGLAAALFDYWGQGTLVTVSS VL: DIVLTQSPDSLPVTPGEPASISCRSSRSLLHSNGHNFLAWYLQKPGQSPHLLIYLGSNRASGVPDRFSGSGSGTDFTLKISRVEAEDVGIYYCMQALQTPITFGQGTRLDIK", "binding normalized to PSGL-1": 0.06}
